# protocolText: Compound toxicity by ATPlite 1 Step (total ATP levels)
# Format: cell-based
# measurementConditions: human; HepAD38 cells, day of harvest; 50% reduction of total ATP vs no drug controls
measureName: CC50

O=C(Nc1cc(F)c(F)c(F)c1)c1ccc(Cl)c(C(F)(F)CCCF)c1 [Compound 3] ... < 10 µM
O=C(Nc1cc(F)c(F)c(F)c1)c1ccc(Cl)c(C(F)(F)CCCO)c1 [Compound 1] ... < 10 µM
COC(=O)OCCCC(F)(F)c1cc(C(=O)Nc2cc(F)c(F)c(F)c2)ccc1Cl [Compound 2] ... 10 to 30 µM

# input Find the recorded CC50 belonging to CC(F)(CCCO)c1cc(C(=O)Nc2cc(F)c(F)c(F)c2)ccc1Cl (stereo not shown) [Compound 21] and report it.
# output > 30 µM
